Target: Neuraminidase (Influenza A virus) (UniProt B4URF0)
Settings: A/swine/Shepparton/6/2009 (H1N1)
Outcome: Met for T1/2 of at least 20 min; Not met for anything lower.

INSERT INTO results (smi, category_label) VALUES
  ('CC(=O)N[C@@H]1[C@@H](O)[C@@H](F)[C@](F)(C(=O)O)O[C@H]1[C@H](O)CCO', 'Not met');

Could you tell me if the measured T1/2 of "CC(=O)N[C@@H]1[C@@H](O)[C@@H](F)[C@](F)(C(=O)O)O[C@H]1[C@H](O)[C@H](O)CO" reaches 20 min or more?
Not met

Thanks! And "CC(=O)N[C@@H]1C[C@@H](F)[C@](F)(C(=O)O)O[C@H]1[C@H](O)[C@H](O)CO" ?
Not met

Thanks! And "CC(=O)N[C@@H]1[C@@H](O)[C@@H](F)[C@](F)(C(=O)O)O[C@H]1[C@H](O)[C@@H](C)O" ?
Met

Thanks! And "CC(=O)N[C@@H]1[C@@H](O)[C@@H](F)[C@](F)(C(=O)O)O[C@H]1C[C@H](O)CO" ?
Not met

Numbers sourced from ChEMBL document CHEMBL4118102.
